Some compounds, each annotated with its measured AC50.
- tested.target: human PAH with the R408W mutation (Homo sapiens, UniProt P00439, R408W)
- Construct: expressed in transfected cells
- Sequence (P00439 whole entry R408W): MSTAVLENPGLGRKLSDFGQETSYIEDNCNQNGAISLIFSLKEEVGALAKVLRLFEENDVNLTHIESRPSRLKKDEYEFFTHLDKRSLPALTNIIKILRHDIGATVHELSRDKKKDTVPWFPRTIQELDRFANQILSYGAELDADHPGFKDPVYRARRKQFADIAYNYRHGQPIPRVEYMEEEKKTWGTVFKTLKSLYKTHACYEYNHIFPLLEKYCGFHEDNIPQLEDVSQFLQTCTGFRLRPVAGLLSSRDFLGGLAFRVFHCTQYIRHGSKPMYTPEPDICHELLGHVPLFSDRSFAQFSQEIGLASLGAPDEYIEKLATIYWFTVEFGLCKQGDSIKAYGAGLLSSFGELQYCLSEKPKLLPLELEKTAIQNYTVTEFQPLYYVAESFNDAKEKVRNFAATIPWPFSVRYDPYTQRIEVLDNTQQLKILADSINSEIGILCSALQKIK
- procedure.text: Cell Based Phenylalanine Flux Assay
- details: A375 cells expressing human R408W PAH; 24 hrs compound incubation; 13C-Tyrosine by LC-MS; average where tested multiple times; read-out: AC50

The examples below pair each entry with its known result.
Cc1nn(C)cc1-c1ncc(C(=O)N2CCc3[nH]cnc3[C@@H]2c2nc3ccccc3s2)s1 | 1000 to 5000 nM
CC(C)(O)c1nc(C(F)F)c(C(=O)N2CCc3[nH]cnc3[C@@H]2c2nc3c(C(F)(F)F)cccc3s2)o1 | 500 to 1000 nM
O=C(c1ncc(Cl)s1)N1CCc2[nH]cnc2[C@@H]1c1nc2cc(F)ccc2s1 | 1000 to 5000 nM

Then this compound:
INPUT: Tell me the measured AC50 of O=C(CCc1ncc(Cl)s1)N1CCc2[nH]cnc2[C@H]1c1nc2ccccc2s1 , please.
OUTPUT: 1000 to 5000 nM

====

Some molecules, each annotated with its measured AC50.
- tested.target: human PAH with the R408W mutation (Homo sapiens, UniProt P00439, R408W)
- Construct: expressed in transfected cells
- procedure.text: Cell Based Phenylalanine Flux Assay
- details: A375 cells expressing human R408W PAH; 24 hrs compound incubation; 13C-Tyrosine by LC-MS; average where tested multiple times; read-out: AC50

The examples below pair each entry with its known result.
Cc1cnc(CC(=O)N2CCc3[nH]cnc3[C@H]2c2nc3ccccc3s2)s1 [Example 1457] | 1000 to 5000 nM
Cc1cc(-c2nnc(C(=O)N3CCc4[nH]cnc4[C@H]3c3nc4ccccc4s3)o2)nn1C [Example 1944] | 500 to 1000 nM
Cc1nc(-c2cnn(CC(F)(F)F)c2)oc1C(=O)N1CCc2[nH]cnc2[C@H]1c1nc2c(F)cccc2s1 [Example 1506] | < 500 nM
O=C(c1nccs1)N1CCc2[nH]cnc2[C@@H]1c1nc2c(Cl)cccc2s1 [Example 1202] | 1000 to 5000 nM
CC(C)n1ncc(C(=O)N2CCc3[nH]cnc3[C@@H]2c2nc3c(F)cccc3s2)c1Cl [Example 1952] | 1000 to 5000 nM
O=C(c1nnc(-c2ccc(F)cc2)o1)N1CCc2[nH]cnc2[C@@H]1c1nc2ccccc2s1 [Example 1370] | 1000 to 5000 nM
O=C(c1cnc(-c2ccccc2)s1)N1CCc2[nH]cnc2[C@@H]1c1nc2ccccc2s1 [Example 1204] | 1000 to 5000 nM
Cc1nc(C(C)(C)O)oc1C(=O)N1CCc2[nH]cnc2[C@H]1c1nc2c(F)cccc2s1 [Example 1471] | < 500 nM

INPUT: Tell me the measured AC50 of O=C(c1oc(CCC2CC2)nc1C(F)(F)F)N1CCc2[nH]cnc2[C@@H]1c1nc2ccccc2s1 [Example 1580] , please.
OUTPUT: < 500 nM

INPUT: Input O=C(c1nc(Cl)cs1)N1CCc2[nH]cnc2[C@@H]1c1nc2ccc(Br)cc2[nH]1 [Example 950]
OUTPUT: 1000 to 5000 nM

INPUT: Input Cn1ncc(Cl)c1C(=O)N1CCc2[nH]cnc2[C@H]1c1nc2c(F)cccc2s1 [Example 1733]
OUTPUT: 500 to 1000 nM

INPUT: Input CC(C)(O)c1ncc(C(=O)N2CCc3[nH]cnc3[C@H]2c2nc3c(F)cccc3s2)o1 [Example 1483]
OUTPUT: 500 to 1000 nM

INPUT: Input O=C(CCC1CC1)N1CCc2nc[nH]c2[C@@H]1c1nc2c(F)cccc2s1 [Example 1114]
OUTPUT: > 5000 nM

INPUT: Input O=C(c1nnc(-c2cn[nH]c2)o1)N1CCc2[nH]cnc2[C@@H]1c1nc2c(F)cccc2s1 [Example 1864]
OUTPUT: 1000 to 5000 nM

INPUT: Input CC(C)(O)c1nc(Br)c(C(=O)N2CCc3[nH]cnc3[C@@H]2c2nc3ccccc3s2)s1 [Example 2108]
OUTPUT: 1000 to 5000 nM

INPUT: Input O=C(c1cn(CC2CC(F)(F)C2)nc1Cl)N1CCc2[nH]cnc2[C@@H]1c1nc2c(F)cccc2s1 [Example 2004]
OUTPUT: 1000 to 5000 nM
